// data source = patent US20120207760A1

molecular target: recombinant homotrimeric HA, A/Japan/305/57 H2N2 (Influenza A virus A/Japan/305/57 (H2N2)); experiment: trimeric HA microarray, transfection set 5; details: remark: other sources report otherwise
Reported Trimeric HA Binding RLU by item:
Express your answer in RLU, writing the number without its unit.

Examples with their reported Trimeric HA Binding RLU follow.
IN: Assign Trimeric HA Binding RLU to the following record: TCN-523 (5248_A17) (antibody, V domains shown) VH: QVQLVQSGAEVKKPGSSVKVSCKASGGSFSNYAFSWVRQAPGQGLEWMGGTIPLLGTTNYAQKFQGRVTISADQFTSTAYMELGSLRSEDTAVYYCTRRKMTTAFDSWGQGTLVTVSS VL: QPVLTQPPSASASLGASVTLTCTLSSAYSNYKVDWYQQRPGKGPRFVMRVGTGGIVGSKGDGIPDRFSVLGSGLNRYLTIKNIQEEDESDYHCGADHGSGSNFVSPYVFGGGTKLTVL
OUT: 22000

IN: Assign Trimeric HA Binding RLU to the following record: TCN-546 (5089_L08) (antibody, V domains shown) VH: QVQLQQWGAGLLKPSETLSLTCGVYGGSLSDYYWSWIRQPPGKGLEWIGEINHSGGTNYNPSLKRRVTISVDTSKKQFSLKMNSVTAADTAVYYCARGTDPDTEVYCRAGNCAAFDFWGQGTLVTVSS VL: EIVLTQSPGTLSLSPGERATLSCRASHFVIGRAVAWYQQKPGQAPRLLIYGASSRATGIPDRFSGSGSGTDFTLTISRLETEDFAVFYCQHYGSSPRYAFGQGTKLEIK
OUT: 1730

IN: Assign Trimeric HA Binding RLU to the following record: TCN-555 (5246_L16) (antibody, V domains shown) VH: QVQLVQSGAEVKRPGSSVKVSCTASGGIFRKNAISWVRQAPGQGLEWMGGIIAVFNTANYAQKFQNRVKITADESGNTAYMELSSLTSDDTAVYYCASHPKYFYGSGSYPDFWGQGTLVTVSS VL: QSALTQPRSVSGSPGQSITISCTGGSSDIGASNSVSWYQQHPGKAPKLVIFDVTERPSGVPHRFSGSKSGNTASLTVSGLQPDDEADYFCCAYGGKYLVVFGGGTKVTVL
OUT: 16700

IN: Assign Trimeric HA Binding RLU to the following record: TCN-538 (3206_O17) (antibody, V domains shown) VH: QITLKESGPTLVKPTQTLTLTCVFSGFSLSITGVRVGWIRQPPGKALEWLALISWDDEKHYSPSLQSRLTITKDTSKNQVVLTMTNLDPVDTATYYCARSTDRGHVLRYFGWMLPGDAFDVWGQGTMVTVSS VL: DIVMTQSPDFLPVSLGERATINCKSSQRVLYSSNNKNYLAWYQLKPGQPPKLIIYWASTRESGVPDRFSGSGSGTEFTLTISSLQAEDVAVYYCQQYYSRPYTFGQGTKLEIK
OUT: 6620

IN: Assign Trimeric HA Binding RLU to the following record: TCN-554 (5277_M05) (antibody, V domains shown) VH: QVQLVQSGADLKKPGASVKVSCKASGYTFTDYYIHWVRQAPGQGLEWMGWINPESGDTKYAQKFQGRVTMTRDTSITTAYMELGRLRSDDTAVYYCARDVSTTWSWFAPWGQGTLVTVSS VL: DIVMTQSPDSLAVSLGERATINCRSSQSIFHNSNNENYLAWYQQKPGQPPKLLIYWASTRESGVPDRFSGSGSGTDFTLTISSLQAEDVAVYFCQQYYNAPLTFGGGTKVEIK
OUT: 2620

IN: Assign Trimeric HA Binding RLU to the following record: TCN-551 (5243_D01) (antibody, V domains shown) VH: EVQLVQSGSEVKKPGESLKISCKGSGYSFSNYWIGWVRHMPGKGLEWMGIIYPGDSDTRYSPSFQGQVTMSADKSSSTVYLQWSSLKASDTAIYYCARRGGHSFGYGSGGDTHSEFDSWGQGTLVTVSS VL: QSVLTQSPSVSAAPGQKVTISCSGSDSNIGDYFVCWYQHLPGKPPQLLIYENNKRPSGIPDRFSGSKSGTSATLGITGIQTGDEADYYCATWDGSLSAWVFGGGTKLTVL
OUT: 25200

Please find the next binder below.
IN: Assign Trimeric HA Binding RLU to the following record: TCN-537 (3194_D21) (antibody, V domains shown) VH: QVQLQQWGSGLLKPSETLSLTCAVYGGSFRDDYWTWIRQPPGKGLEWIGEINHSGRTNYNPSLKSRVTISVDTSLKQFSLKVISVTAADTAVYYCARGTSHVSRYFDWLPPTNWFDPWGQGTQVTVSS VL: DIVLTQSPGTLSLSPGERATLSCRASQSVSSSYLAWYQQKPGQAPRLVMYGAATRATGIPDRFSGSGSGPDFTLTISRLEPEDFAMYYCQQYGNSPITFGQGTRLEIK
OUT: 16200
